meta.source: patent US20180099931A1

# Assay target: F508delCFTR (Homo sapiens, UniProt P13569, DEL508-508)
# Construct: expressed in transfected cells; host or cells: CFBE41o- human lung-derived epithelial cells (CFBE4lo-F508delCFTR-HRP), doxycycline-inducible
# Sequence (P13569 with tags, fused parts or gaps DEL508-508): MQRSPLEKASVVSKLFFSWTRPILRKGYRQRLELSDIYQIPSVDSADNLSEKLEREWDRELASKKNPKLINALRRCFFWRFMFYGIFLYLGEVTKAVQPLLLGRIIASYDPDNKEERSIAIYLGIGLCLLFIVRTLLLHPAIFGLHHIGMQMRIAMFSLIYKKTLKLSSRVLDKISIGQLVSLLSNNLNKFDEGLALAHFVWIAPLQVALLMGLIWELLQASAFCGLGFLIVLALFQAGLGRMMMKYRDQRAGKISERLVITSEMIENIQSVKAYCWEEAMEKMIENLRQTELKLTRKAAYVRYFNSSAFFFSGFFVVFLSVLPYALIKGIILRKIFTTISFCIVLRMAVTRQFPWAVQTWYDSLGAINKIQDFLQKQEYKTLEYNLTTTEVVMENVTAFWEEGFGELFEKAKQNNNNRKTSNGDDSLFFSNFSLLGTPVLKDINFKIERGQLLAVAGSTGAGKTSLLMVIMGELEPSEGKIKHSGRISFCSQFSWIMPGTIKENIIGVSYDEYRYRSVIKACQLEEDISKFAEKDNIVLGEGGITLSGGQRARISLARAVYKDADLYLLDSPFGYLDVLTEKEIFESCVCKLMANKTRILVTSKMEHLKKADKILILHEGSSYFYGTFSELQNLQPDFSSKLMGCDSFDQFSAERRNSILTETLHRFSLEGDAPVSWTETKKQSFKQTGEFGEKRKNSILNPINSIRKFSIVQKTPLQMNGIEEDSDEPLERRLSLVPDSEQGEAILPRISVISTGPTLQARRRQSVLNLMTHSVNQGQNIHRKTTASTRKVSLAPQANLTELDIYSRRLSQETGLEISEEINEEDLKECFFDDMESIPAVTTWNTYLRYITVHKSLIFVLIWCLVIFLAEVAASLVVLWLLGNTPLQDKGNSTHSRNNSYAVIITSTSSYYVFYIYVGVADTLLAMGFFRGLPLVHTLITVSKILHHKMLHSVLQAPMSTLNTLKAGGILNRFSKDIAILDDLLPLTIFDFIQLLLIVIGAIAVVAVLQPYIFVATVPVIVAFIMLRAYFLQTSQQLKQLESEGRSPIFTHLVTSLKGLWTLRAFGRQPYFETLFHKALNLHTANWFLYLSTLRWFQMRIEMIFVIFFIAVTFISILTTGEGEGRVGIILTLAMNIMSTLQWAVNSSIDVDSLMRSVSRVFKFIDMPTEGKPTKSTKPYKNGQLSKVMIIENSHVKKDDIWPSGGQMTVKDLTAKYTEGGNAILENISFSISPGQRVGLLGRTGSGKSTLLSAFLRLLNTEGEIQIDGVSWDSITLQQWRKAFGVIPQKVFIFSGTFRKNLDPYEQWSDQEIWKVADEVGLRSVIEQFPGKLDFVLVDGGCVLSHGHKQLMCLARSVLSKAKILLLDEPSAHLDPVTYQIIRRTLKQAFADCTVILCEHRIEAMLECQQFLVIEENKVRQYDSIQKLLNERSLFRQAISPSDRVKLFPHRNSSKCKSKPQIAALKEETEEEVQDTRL
# Assay comment: Cell Surface Expression-Horse Radish Peroxidase (CSE-HRP) Assay;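 as to Maximum % activity (with co-corrector): co-corrector and positive control are both the same reference corrector at 2 µM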
# Format: cell-based
# Recorded conditions: with co-corrector (2 μM of 3-[(2R,4R)-4-({[1-(2,2-difluoro-1,3-benzodioxol-5-yl)cyclopropyl]carbonyl}amino)-7-methoxy-3,4-dihydro-2H-chromen-2-yl]benzoic acid); maximum at any tested concentration, normalized to on-plate positive control
Reported endpoint: Maximum % activity (with co-corrector)

{"Compound": "COc1ncc(C(F)(F)F)cc1CN[C@H]1[C@H](C(C)(C)C)[C@@H](C(=O)O)N(C(=O)[C@H]2CCCCO2)[C@H]1c1cccnc1N(C)C [II-478]", "Measured": "++ (≥150 and <350)"}
{"Compound": "CC(C)(C)[C@@H]1[C@@H](NCc2ccc(Cl)cc2Cl)[C@@H](c2ccccc2)N(C(=O)CC2CCCC2)[C@H]1C(=O)O (racemic) [III-3]", "Measured": "++ (≥150 and <350)"}

###

# Assay target: F508delCFTR (Homo sapiens, UniProt P13569, DEL508-508)
# Construct: expressed in transfected cells; host or cells: CFBE41o- human lung-derived epithelial cells (CFBE4lo-F508delCFTR-HRP), doxycycline-inducible
# Assay comment: Cell Surface Expression-Horse Radish Peroxidase (CSE-HRP) Assay;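 as to Maximum % activity (without co-corrector): percent of the 2 µM on-plate positive control corrector response above DMSO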
# Assay type: cell-based
# Recorded conditions: CSE-HRP; without co-corrector; maximum at any tested concentration, normalized to on-plate positive control; read-out: Maximum % activity (without co-corrector)
Collected Emax values appear next to each entry.

Q. Fill in: Emax of COc1ncc(C(C)C)cc1CN[C@H]1[C@H](C(C)(C)OC)[C@@H](C(=O)O)N(C(=O)C2CCCCC2)[C@H]1c1ccccc1 is ___
A. > 200%

Q. Now the same for Cc1cc(C(F)(F)F)cc(N[C@@H]2[C@@H](C(C)(C)C)[C@H](C(=O)O)N(C(=O)OC(C)C)[C@@H]2c2ccccc2)n1 (racemic)
A. < 100%

Q. Now the same for COc1cc(C(F)(F)F)ccc1CN[C@@H]1[C@@H](C(C)(C)C)[C@H](C(=O)O)N(C(=O)C(C)Oc2ccccc2)[C@@H]1c1ccccc1 (single isomer, unassigned)
A. < 100%

Q. Now the same for COc1ncc(C2CCC2)cc1CN[C@H]1[C@H](C(C)(C)C)[C@@H](C(=O)O)N(C(=O)[C@H]2CCC[C@@H](C(F)(F)F)C2)[C@H]1c1ccccc1 (relative stereo)
A. < 100%

Q. Now the same for CC(C)(C)[C@H]1[C@H](NCc2cccc(C(F)(F)F)c2)[C@H](c2ccccc2)N(C(=O)C2CCCCC2)[C@@H]1C(=O)O
A. < 100%

Q. Now the same for COc1cc(Cl)ccc1CN[C@H]1[C@H](C(C)(C)C)[C@@H](C(=O)O)N(C(=O)[C@H](OC)c2ccccc2)[C@H]1c1ccccc1 (relative stereo)
A. > 200%

Q. Now the same for COc1ncc(C2CCC2)cc1CN[C@H]1[C@H](C(C)(C)C)[C@@H](C(=O)O)N(C(=O)[C@@H]2CCCO2)[C@H]1c1cccnc1N(C)C
A. 100 to 200%

Q. Now the same for COc1cc(C(C)(C)C)ccc1CN[C@H]1[C@H](C(C)(C)C)[C@@H](C(=O)O)N(C(=O)C2CCCCC2)[C@H]1c1ccccc1OC
A. 100 to 200%

Q. Now the same for COc1ccc(C(F)(F)F)cc1CN[C@H]1[C@H](C(C)(C)C)[C@@H](C(=O)O)N(S(=O)(=O)c2ccccc2)[C@H]1c1ccccc1
A. < 100%

Q. Now the same for COc1ncc(Br)cc1CN[C@H]1[C@H](C(C)(C)C)[C@@H](C(=O)O)N(C(=O)[C@@H]2CCCCO2)[C@H]1c1ccccc1C
A. > 200%

Q. Now the same for Cc1ccc(C)c(CN[C@H]2[C@H](C(C)(C)C)[C@@H](C(=O)O)N(C(=O)C3CCCCC3)[C@H]2c2ccccc2)c1
A. < 100%

Q. Now the same for COc1cccc(S(=O)(=O)N2[C@H](C(=O)O)[C@@H](C(C)(C)C)[C@H](NCc3cc(C4CCC4)cnc3OC)[C@@H]2c2ccccc2C(C)C)n1
A. < 100%

Q. Now the same for COc1cc(Cl)ccc1CN[C@@H]1[C@@H](C(C)(C)C)[C@H](C(=O)O)N(C(=O)[C@@H]2CCC[C@@H](OC)C2)[C@@H]1c1ccccc1 (racemic)
A. 100 to 200%

Q. Now the same for COc1ccc(C(F)(F)F)cc1CN[C@H]1[C@H](C(C)(C)C)[C@@H](C(=O)O)N(C(=O)[C@@H]2CCCCO2)[C@H]1c1cccc2c1OCC2
A. 100 to 200%

Q. Now the same for COc1ccc(C(C)(C)C)cc1CN[C@H]1[C@H](C(C)(C)C)[C@@H](C(=O)O)N(C(=O)[C@@H]2CCCO2)[C@H]1c1ccccc1Br
A. > 200%

Q. Now the same for COc1ccc(C(F)(F)F)cc1CN[C@@H]1[C@@H](C(C)(C)C)[C@H](C(=O)O)N(C(=O)OC(C)C)[C@@H]1c1ccccc1N(C)C (racemic)
A. 100 to 200%

Q. Now the same for COc1cc(C(F)(F)F)ccc1CN[C@@H]1[C@@H](C(C)(C)C)[C@H](C(=O)O)N(C(=O)[C@@H]2CCCCO2)[C@@H]1c1ccccc1 (racemic) [II-49]
A. 100 to 200%

Q. Now the same for COc1ccc(C2(C)CCC2)cc1CN[C@H]1[C@H](C(C)(C)C)[C@@H](C(=O)O)N(C(=O)C2CCC2)[C@H]1c1ccccc1C(F)(F)F
A. 100 to 200%

Q. Now the same for COc1ccc(C(F)(F)F)cc1CN[C@H]1[C@H](C(C)(C)C)[C@@H](C(=O)O)N(C(=O)C2Cc3ccccc3O2)[C@H]1c1ccccc1 (single isomer, unassigned)
A. < 100%

Q. Now the same for COc1ccc(Cl)cc1CN[C@H]1[C@H](C(C)(C)C)[C@@H](C(=O)O)N(C(=O)C2CCCCC2)[C@H]1c1ccccc1
A. > 200%

Q. Now the same for COc1ccc(OC(F)F)cc1CN[C@H]1[C@H](C(C)(C)C)[C@@H](C(=O)O)N(C(=O)C2CCCCC2)[C@H]1c1ccccc1
A. 100 to 200%

Q. Now the same for COc1cc(C)ccc1CN[C@H]1[C@H](C(C)(C)C)[C@@H](C(=O)O)N(C(=O)C2CCCCC2)[C@H]1c1cccnc1OC
A. 100 to 200%

Q. Now the same for CC(C)(C)[C@@H]1[C@@H](NCc2ccccc2OC(F)(F)F)[C@@H](c2ccccc2)N(C(=O)C2CCCCC2)[C@H]1C(=O)O (racemic)
A. < 100%
